System: HCT116 MTAP KO
assay_explanation: Cell proliferation inhibition (CellTiter Glo), HCT116 MTAP KO cells
Assay type: cell-based
settings: Homo sapiens, HCT-116, 144 h, cultured 6 days with compound
pIC50: −log10 of the molar value.
Values of pIC50 greater than or equal to 7 map to criterion met; values below map to criterion not met.

molecule | group_label
CNC(N)=Nc1ccc(C(=O)N(Cc2ccc(-c3cccnc3)cn2)[C@H](C)c2ccccc2F)cn1 [Compound 68] | criterion not met
CNC(N)=Nc1ccc(C(=O)N(Cc2ccc(C(F)(F)F)cn2)c2cccc3cccnc23)cn1 [Compound 45] | criterion met
CNC(N)=Nc1ccc(C(=O)N(Cc2ccc(C(F)(F)F)cn2)C(C)C2CC2)cn1 (stereo not drawn) [Compound 33] | criterion not met
NC(=Nc1ccc(C(=O)N(Cc2ccc(C(F)(F)F)cn2)C2CCCc3cccnc32)cn1)NO (stereo not drawn) [Compound 117] | criterion met
CNC(N)=Nc1ccc(C(=O)N(Cc2ccc(C(F)(F)F)cn2)C2CCCc3cccc(F)c32)cn1 (stereo not drawn) [compound 93] | criterion met
CNC(N)=Nc1ccc(C(=O)N(Cc2cccc(Cl)c2)[C@H](C)c2ccccc2F)cn1 [Compound 106] | criterion not met
CNC(N)=Nc1ccc(C(=O)N(Cc2ccc(C(F)(F)F)cn2)[C@@H]2CCc3ccccc32)cn1 [Compound 83] | criterion not met
CNC(N)=Nc1ccc(C(=O)N(Cc2ccc(-c3cnn(C(F)(F)F)c3)cn2)[C@H](C)c2ccccc2F)cn1 [Compound 69] | criterion met
CN/C(N)=N\c1ccc(C(=O)N(Cc2ccc(OC(F)(F)F)cn2)[C@H](C)c2ccccc2F)cn1 [Compound 77] | criterion met
CNC(N)=Nc1ccc(C(=O)N(Cc2ccc(C(F)(F)F)cn2)C(C)c2ncccc2F)cn1 (racemic) [Compound 58] | criterion met
CC(c1ncccn1)N(Cc1ccc(C(F)(F)F)cn1)C(=O)c1ccc(N=C(N)NO)nc1 (stereo not drawn) [Compound 12] | criterion met
CN/C(N)=N\c1ccc(C(=O)N(Cc2ccc(C(F)(F)F)cn2)C(C)c2ncccc2F)cn1 (single isomer, unassigned) [Compound 65] | criterion met

* * *

System: HCT116-WT
assay_explanation: Cell proliferation inhibition (CellTiter Glo), HCT116-WT cells
Type: cell-based
settings: 144 h, cultured 6 days with compound
Recorded measurements of IC50, one per entry
reported_property: IC50 (nM)

molecule | unit_abbreviation | readout_value
CN/C(N)=N\c1ccc(C(=O)N(Cc2ccc(C(F)(F)F)cn2)C2CCCc3nccnc32)cn1 (stereo not shown) | nM | 1930
CNC(N)=Nc1ccc(C(=O)N(Cc2ccc(C(F)(F)F)cn2)C(C)c2ccccc2Cl)cn1 (stereo not shown) | nM | 3840
CNC(N)=Nc1ccc(C(=O)N(Cc2ccc3ccsc3c2)[C@H](C)c2ccccc2F)cn1 | nM | 2230
CNC(N)=Nc1ccc(C(=O)N(Cc2ccc(C(F)(F)F)cn2)C(C)c2ccc(F)cc2)cn1 (stereo not shown) | nM | 2700

* * *

Tested on: HCT116-WT
assay_explanation: Cell proliferation inhibition (CellTiter Glo), HCT116-WT cells
Type: cell-based
settings: 144 h, cultured 6 days with compound
reported_property: log10 of IC50 (log10 of the value in nM)

compound | reported_property | readout_value
CNC(N)=Nc1ccc(C(=O)N(Cc2ccccc2)Cc2ccc(C(F)(F)F)cn2)cn1 [Compound 36] | log10 of IC50 | 3.73
CNC(N)=Nc1ccc(C(=O)N(Cc2ccc(C(F)(F)F)cn2)N(C)c2ncccn2)cn1 [Compound 113] | log10 of IC50 | 3.42
CNC(N)=Nc1ccc(C(=O)N(Cc2ccc(C(F)(F)F)cn2)[C@H]2CCc3ccccc32)cn1 [Compound 87] | log10 of IC50 | 3.52
CNC(N)=Nc1ccc(C(=O)N(Cc2ccc(C(F)(F)F)cn2)C(C)c2ccccc2OC(F)(F)F)cn1 (stereo not drawn) [Compound 60] | log10 of IC50 | 3.47
CNC(N)=Nc1ccc(C(=O)N(Cc2ccc3sc(C4CCN(C)CC4)nc3c2)[C@H](C)c2ccccc2F)cn1 [Compound 79] | log10 of IC50 | 3.54
CCNC(N)=Nc1ccc(C(=O)N(Cc2ccc(C(F)(F)F)cn2)C(C)c2ncccn2)cn1 (stereo not drawn) [Compound 14] | log10 of IC50 | 3.55
CNC(N)=Nc1ccc(C(=O)N(Cc2ccc(-c3ccc(C)nc3)cn2)[C@H](C)c2ccccc2F)cn1 [Compound 71] | log10 of IC50 | 3.04
CNC(N)=Nc1ccc(C(=O)N(Cc2ccc(C(F)(F)F)cn2)n2ccc3cccnc32)cn1 [Compound 56] | log10 of IC50 | 2.73
CNC(N)=Nc1ccc(C(=O)N(Cc2ccc(C(F)(F)F)cn2)N2CCc3ccccc32)cn1 [Compound 64] | log10 of IC50 | 3.29
CN/C(N)=N\c1ccc(C(=O)N(Cc2ccc(-c3ccc(N4CCOCC4)nc3)cn2)[C@H](C)c2ccccc2F)cn1 [Compound 67] | log10 of IC50 | 2.83
CNC(N)=Nc1ccc(C(=O)N(Cc2ccccc2)[C@H](C)c2ccccc2F)cn1 [Compound 99] | log10 of IC50 | 3.52
CNC(N)=Nc1ccc(C(=O)N(Cc2ccc(C(F)(F)F)cn2)[C@H](C)c2cc(F)ccc2F)cn1 [Compound 85] | log10 of IC50 | 2.46
CN/C(N)=N\c1ccc(C(=O)N(Cc2ccc(C(F)(F)F)cn2)C2CCc3cccnc32)cn1 (stereo not drawn) [Compound 92] | log10 of IC50 | 3.17
CNC(N)=Nc1ccc(C(=O)N(Cc2ccc(C(F)(F)F)cn2)C(C)C2CC2)cn1 (stereo not drawn) [Compound 33] | log10 of IC50 | 3.60
CNC(N)=Nc1ccc(C(=O)N(Cc2ccc(-c3cncs3)cn2)[C@H](C)c2ccccc2F)cn1 [Compound 72] | log10 of IC50 | 2.84
